Ref: patent US20260250381A1

Biological target: T1, human TREM2 (human) (UniProt Q9NZC2)
T1 sequence (looked up): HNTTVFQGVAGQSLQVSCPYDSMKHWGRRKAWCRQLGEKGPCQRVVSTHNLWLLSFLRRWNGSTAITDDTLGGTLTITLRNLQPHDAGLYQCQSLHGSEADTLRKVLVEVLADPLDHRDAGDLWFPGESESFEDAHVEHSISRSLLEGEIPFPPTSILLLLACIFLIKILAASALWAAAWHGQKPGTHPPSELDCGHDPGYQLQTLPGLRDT
Experiment: 1st screen, 10 nM Ab
For each entry below, report its Binding Signal (fold over 6E7 parental antibody) value.

Tell me the measured Binding Signal (fold over 6E7 parental antibody) of 6E7 variant V29 (antibody, V domains shown) VH: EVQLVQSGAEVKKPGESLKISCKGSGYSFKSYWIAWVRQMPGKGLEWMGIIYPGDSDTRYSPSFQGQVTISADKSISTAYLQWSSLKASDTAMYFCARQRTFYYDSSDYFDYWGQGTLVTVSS VL: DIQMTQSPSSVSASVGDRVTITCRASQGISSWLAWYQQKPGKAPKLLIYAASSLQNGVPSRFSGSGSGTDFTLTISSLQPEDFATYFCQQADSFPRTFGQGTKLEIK , please.
1.53 fold

What value of Binding Signal (fold over 6E7 parental antibody) has been reported for the following binder? 6E7 variant V5 (antibody, V domains shown) VH: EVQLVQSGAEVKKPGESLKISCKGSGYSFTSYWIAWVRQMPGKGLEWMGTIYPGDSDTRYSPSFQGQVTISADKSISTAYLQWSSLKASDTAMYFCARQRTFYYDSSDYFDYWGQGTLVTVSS VL: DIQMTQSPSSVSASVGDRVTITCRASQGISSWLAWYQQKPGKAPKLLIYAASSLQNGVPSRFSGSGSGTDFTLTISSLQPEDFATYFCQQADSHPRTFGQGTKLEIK
2.73 fold

Any idea what its Binding Signal (fold over 6E7 parental antibody) is? The binder is 6E7 variant V4 (antibody, V domains shown) VH: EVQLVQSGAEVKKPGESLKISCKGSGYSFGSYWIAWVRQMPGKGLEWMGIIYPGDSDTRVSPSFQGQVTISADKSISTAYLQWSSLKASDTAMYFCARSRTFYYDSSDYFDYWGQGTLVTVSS VL: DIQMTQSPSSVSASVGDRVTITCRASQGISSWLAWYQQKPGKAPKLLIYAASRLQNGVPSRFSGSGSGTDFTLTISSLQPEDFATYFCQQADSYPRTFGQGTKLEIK
6 fold

Any idea what its Binding Signal (fold over 6E7 parental antibody) is? The binder is 6E7 variant V16 (antibody, V domains shown) VH: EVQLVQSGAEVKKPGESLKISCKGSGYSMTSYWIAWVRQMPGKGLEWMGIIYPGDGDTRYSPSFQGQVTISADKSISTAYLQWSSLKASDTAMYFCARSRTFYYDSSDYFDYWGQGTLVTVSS VL: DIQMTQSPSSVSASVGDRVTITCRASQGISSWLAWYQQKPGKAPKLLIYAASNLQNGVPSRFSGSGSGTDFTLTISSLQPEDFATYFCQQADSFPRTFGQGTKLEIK
4.01 fold

Binding Signal (fold over 6E7 parental antibody) lookup needed for 6E7 variant V41 (antibody, V domains shown) VH: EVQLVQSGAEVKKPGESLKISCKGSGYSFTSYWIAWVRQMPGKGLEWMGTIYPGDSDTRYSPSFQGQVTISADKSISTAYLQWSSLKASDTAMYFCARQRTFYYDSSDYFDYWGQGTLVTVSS VL: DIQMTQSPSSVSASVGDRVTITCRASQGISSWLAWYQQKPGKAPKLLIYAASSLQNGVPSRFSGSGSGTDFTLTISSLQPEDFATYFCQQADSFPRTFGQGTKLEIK , thanks.
1.74 fold
